Values were extracted from ChEMBL document CHEMBL3039007.

# measured_target: Solute carrier organic anion transporter family member 1B3 (Homo sapiens)
# Sequence (Q9NPD5 whole entry): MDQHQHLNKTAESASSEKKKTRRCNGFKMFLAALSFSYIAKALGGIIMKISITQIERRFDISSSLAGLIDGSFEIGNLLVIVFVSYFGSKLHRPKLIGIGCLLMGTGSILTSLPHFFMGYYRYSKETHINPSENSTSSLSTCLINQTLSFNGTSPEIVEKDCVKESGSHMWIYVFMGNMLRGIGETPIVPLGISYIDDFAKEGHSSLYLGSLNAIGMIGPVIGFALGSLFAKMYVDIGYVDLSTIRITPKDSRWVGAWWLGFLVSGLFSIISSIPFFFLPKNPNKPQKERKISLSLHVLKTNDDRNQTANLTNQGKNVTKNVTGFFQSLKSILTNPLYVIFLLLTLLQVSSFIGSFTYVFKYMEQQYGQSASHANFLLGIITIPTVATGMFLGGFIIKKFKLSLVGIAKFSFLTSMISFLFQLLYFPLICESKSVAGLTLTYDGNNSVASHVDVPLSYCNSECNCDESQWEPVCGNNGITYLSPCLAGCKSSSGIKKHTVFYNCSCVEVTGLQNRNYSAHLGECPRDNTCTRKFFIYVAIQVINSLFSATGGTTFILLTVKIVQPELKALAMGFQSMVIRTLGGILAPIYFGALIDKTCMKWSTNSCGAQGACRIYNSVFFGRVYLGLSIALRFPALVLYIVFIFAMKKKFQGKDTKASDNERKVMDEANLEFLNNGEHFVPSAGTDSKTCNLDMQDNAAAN
# run_parameters: chinese hamster, cho, 10 µM
property_measured: residual activity (%)
Dear colleague, please return just the value in %, with no unit written.

Some solved entries appear below for comparison.
molecule | measurement_unit | endpoint_result
CC(C(=O)O)c1ccc2c(c1)[nH]c1ccc(Cl)cc12 (centres undefined) | % | 77.78
C[C@@H]1CC[C@@]23CCC4(C)[C@@](C=CC5[C@@]6(C)CCC(=O)C(C)(C)C6CC[C@]54C)(OC2=O)C3[C@H]1C (some centres undefined) [3-OXOURSAN (28-13)OLIDE] | % | 96.4
COc1cc(C)c(C(=O)Oc2cc(C)c(C(=O)O)c(O)c2C)c(O)c1C=O | % | 46.77

Consider now this further molecule.
q: Reported residual activity, molecule `CS(=O)(=O)c1ccc(C2=C(c3ccccc3)C(=O)OC2)cc1` : ____
a: 84.03
